- target.of.assay: HIV Env, isolate Ce704809221_1B3 (HIV)
- test.description: cell-based or functional assay
Reported IC80 (µg/ml) with constrains by item:
Answer in µg/mL, number only, no unit symbol.

- ePGDM5 (antibody, V domains shown) VH: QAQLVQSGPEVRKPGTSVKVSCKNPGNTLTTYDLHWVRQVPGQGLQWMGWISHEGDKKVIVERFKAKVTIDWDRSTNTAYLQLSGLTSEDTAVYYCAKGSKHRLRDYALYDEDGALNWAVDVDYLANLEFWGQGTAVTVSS VL: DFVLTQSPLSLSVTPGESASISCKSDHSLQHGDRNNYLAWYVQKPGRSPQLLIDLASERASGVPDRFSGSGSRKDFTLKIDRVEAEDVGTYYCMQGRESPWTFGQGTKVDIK: 0.749
- ePGDM13 (antibody, V domains shown) VH: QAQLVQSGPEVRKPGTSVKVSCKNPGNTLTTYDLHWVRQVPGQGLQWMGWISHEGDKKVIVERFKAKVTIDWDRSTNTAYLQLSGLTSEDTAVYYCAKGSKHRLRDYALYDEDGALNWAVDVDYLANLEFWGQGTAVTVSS VL: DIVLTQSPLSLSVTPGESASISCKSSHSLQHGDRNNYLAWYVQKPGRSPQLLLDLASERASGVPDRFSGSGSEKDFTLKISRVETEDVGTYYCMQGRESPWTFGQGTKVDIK: 1.36

Give the measured IC80 (µg/ml) with constrains of ePGDM9 (antibody, V domains shown) VH: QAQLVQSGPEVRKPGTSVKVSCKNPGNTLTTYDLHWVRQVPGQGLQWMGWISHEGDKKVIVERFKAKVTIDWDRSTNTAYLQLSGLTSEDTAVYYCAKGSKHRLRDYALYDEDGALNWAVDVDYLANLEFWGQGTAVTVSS VL: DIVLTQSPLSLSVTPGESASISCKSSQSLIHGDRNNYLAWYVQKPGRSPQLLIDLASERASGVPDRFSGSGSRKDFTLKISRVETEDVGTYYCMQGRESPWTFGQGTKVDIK .
0.539

Give the measured IC80 (µg/ml) with constrains of PGDM1400 (antibody, V domains shown) VH: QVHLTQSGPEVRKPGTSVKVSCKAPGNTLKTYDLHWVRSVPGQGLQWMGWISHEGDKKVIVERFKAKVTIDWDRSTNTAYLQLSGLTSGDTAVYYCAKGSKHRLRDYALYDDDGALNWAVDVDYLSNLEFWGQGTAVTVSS VL: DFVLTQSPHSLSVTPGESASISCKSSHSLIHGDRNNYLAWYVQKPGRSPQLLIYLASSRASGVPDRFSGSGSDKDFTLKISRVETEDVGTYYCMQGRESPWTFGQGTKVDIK .
1.28
